Assay: Pharmacokinetic test in rats
Format: in vivo, rat
Settings: rat, po; male SD rats, p.o. 10 mg/kg, plasma
Protocol: Male SD rats (weighing 180-260 g) were administered with compound (I) at a dose of 1.0 mg/kg by tail vein injection and at a dose of 10.0 mg/kg orally. Each group consisted of 3 animals. […] The concentration of compound (I) in the plasma was quantified by liquid chromatography-tandem mass spectrometry (LC-MS/MS). Pharmacokinetic parameters were calculated from the analysis results of the samples using WinNonlin software.
endpoint_label: AUC0-t (µg·h/mL)
Give just the numeric value; µg·h/mL need not be written.

Form field AUC0-t, entry `CCC/C(O)=C1/C(=O)Oc2ccccc21` : 703

* * *

Experiment: Distribution in brain tissues of rats (plasma and brain concentration)
Format: in vivo
Details: rat, plasma, po; male SD rats, 20 mg/kg p.o., sampling time 4 h; read-out: Measured value in plasma Concentration
Procedure: Plasma and brain tissue samples were collected from the animals at 0.5 h, 1 h, 4 h, and 24 h after administration. Collection of plasma: 0.2 mL of whole blood was collected by using an EP tube containing EDTA-K2 and centrifuged at 3500 g for 10 min, and then the upper plasma was collected and stored at −20° C. […] The concentration of compound in the plasma and brain tissue samples was quantified by liquid chromatography-tandem mass spectrometry (LC-MS/MS).
endpoint_label: concentration at 4 h
Include the unit after the number when you answer.

>  <molecule>
CCC/C(O)=C1/C(=O)Oc2ccccc21

>  <concentration at 4 h>
182 µg/mL

$$$$

With those in mind, consider the next molecule.
Form field concentration at 4 h, entry CCCCC1OC(=O)c2ccccc21 (centres unmarked) [NBP, 3-n-butylphthalide] : 0.0072 µg/mL

* * *

Assay: Distribution in brain tissues of rats (plasma and brain concentration)
Format: in vivo
Settings: rat, plasma, po; male SD rats, 20 mg/kg p.o., sampling time 1 h; read-out: Measured value in plasma Concentration
Reported concentration at 1 h by item:
Give just the numeric value; µg/mL need not be written.

>  <compound>
CCCCC1OC(=O)c2ccccc21 (centres unmarked) [NBP, 3-n-butylphthalide]

>  <endpoint_label>
concentration at 1 h

>  <readout_value>
0.0191

$$$$

With those in mind, consider the next compound.
Form field concentration at 1 h, entry `CCC/C(O)=C1/C(=O)Oc2ccccc21` : 192

* * *

Experiment: Pharmacokinetic test in rats
Type: in vivo, rat
Settings: rat, iv; male SD rats, i.v. 1 mg/kg, plasma
endpoint_label: MRT inf (h)
Give just the numeric value; h need not be written.

Form field MRT inf, entry CCC/C(O)=C1/C(=O)Oc2ccccc21 [Compound (I)] : 9.8

* * *

Assay: Pharmacokinetic test in rats
Format: in vivo, rat
Conditions: rat, iv; male SD rats, i.v. 1 mg/kg, plasma
endpoint_label: AUC0-inf (ng·h/mL)
Give just the numeric value; ng·h/mL need not be written.

Form field AUC0-inf, entry `CCC/C(O)=C1/C(=O)Oc2ccccc21` : 59200

* * *

Test: Pharmacokinetic test in rats
Assay type: in vivo, rat
Conditions: rat, po; male SD rats, p.o. 10 mg/kg, plasma
endpoint_label: AUC0-inf (µg·h/mL)
Give just the numeric value; µg·h/mL need not be written.

Form field AUC0-inf, entry `CCC/C(O)=C1/C(=O)Oc2ccccc21` : 854

* * *

Assay: Pharmacokinetic test in rats
Assay type: in vivo, rat
Conditions: rat, po; male SD rats, p.o. 10 mg/kg, plasma
Experimental: Male SD rats (weighing 180-260 g) were administered with compound (I) at a dose of 1.0 mg/kg by tail vein injection and at a dose of 10.0 mg/kg orally. Each group consisted of 3 animals. […] The concentration of compound (I) in the plasma was quantified by liquid chromatography-tandem mass spectrometry (LC-MS/MS). Pharmacokinetic parameters were calculated from the analysis results of the samples using WinNonlin software.
endpoint_label: Tmax
Include the unit after the number when you answer.

Form field Tmax, entry `CCC/C(O)=C1/C(=O)Oc2ccccc21` : 30 min
